These entries and their values trace back to patent US8895761B2.

- Test system: Lolium perenne (LOLPE)
- MEASUREMENT DESCRIPTION: Post-emergence herbicidal glasshouse test, Lolium perenne
- Format: in vivo
- APPLIED CONDITIONS: 312 h, rate 250 g/ha, evaluated after 13 days, scale 100 = total damage to plant, 0 = no damage
Rule for this label: yes (1) means pest or weed control at 250 g/ha is less than 60%; no (0) means pest or weed control at 250 g/ha is at least 60%.

COMPOUND	DISCRETE LABEL
CCc1cc(-c2cc(F)c(F)c(F)c2)ccc1C1=C(O)C(C)(C)SC(C)(C)C1=O	no (0)
CCc1cc(-c2cc(F)c(F)cc2F)ccc1C1=C(O)C(C)(CC)OC(C)(C)C1=O (centres unmarked)	no (0)
CCc1cc(-c2ccc(F)cc2)ccc1C1=C(O)C(C)(C)OC(C)(C)C1=O	no (0)
CC1(C)OC(C)(C)C(O)=C(c2ccc(-c3ccc(F)cc3)cc2Cl)C1=O	yes (1)
CCc1cc(-c2ccc(C(F)(F)F)cc2)ccc1C1=C(O)C(C)(C)OC(C)(C)C1=O	yes (1)
CCc1cc(-c2cc(F)c(F)c(F)c2)ccc1C1=C(O)C(C)(CC)OC(C)(C)C1=O (centres unmarked)	no (0)

----------
# maps each entry to its pest or weed control at 250 g/ha
- Test system: Lolium perenne (LOLPE)
- MEASUREMENT DESCRIPTION: Post-emergence herbicidal glasshouse test, Lolium perenne
- Assay type: in vivo
- APPLIED CONDITIONS: 312 h, rate 250 g/ha, evaluated after 13 days, scale 100 = total damage to plant, 0 = no damage
ASSAY READOUT: pest or weed control at 250 g/ha

MOLECULE	TARGET DESC	ASSAY READOUT	RESULT
CCc1cc(-c2ccc(Cl)cc2F)ccc1C1=C(O)[C@@]2(C)CC[C@H](O2)C1=O (racemic)	Lolium perenne (LOLPE)	pest or weed control at 250 g/ha	100%
CCc1cc(-c2ccc(F)cc2)ccc1C1=C(OC(C)=O)C(C)(C)OC(C)(C)C1=O	Lolium perenne (LOLPE)	pest or weed control at 250 g/ha	100%
CCc1cc(-c2cc(Cl)ccc2OC)ccc1C1=C(O)C(C)(C)OC(C)(C)C1=O	Lolium perenne (LOLPE)	pest or weed control at 250 g/ha	70%
CCc1cc(-c2ccc(F)cc2OC)ccc1C1=C(O)C(C)(C)OC(C)(C)C1=O	Lolium perenne (LOLPE)	pest or weed control at 250 g/ha	70%

----------
# maps each entry to its pest or weed control at 250 g/ha
- System: Lolium perenne (LOLPE)
- MEASUREMENT DESCRIPTION: Post-emergence herbicidal glasshouse test, Lolium perenne
- Assay type: in vivo
- APPLIED CONDITIONS: 312 h, rate 250 g/ha, evaluated after 13 days, scale 100 = total damage to plant, 0 = no damage

COMPOUND	pest or weed control at 250 g/ha / %
CCc1cc(-c2cc(F)c(F)c(F)c2)ccc1C1=C(O)C(C)(C)C(=O)C(C)(C)C1=O [Compound C-5]	70
CCc1cc(-c2cc(F)c(F)c(F)c2)ccc1C1=C(O)C2(CCCC2)OC(C)(C)C1=O [Compound A-126]	40
CCc1cc(-c2ccc(Cl)cc2Cl)ccc1C1=C(O)C(C)(C)OC(C)(C)C1=O [Compound A-36]	40
CCc1cc(-c2ccc(F)c(F)c2F)ccc1C1=C(O)C(C)(C)OC(C)(C)C1=O [Compound A-87]	90
CCc1cc(-c2ccc(F)c(F)c2F)ccc1C1=C(O)C(C)(C)SC(C)(C)C1=O [Compound B-9]	60
CCc1cc(-c2ccc(F)c(OC)c2)ccc1C1=C(O)C(C)(C)S(=O)(=O)C(C)(C)C1=O [Compound B-16]	60
CCc1cc(-c2ccc(F)c(F)c2)ccc1C1=C(O)C2(CCCC2)OC(C)(C)C1=O [Compound A-125]	30
CCc1cc(-c2cc(Cl)ccc2OC)ccc1C1=C(O)C(C)(C)C(=O)C(C)(C)C1=O [Compound C-6]	20

----------
- Test system: Avena fatua (AVEFA)
- MEASUREMENT DESCRIPTION: Pre-emergence herbicidal glasshouse test, Avena fatua
- Assay type: in vivo
- APPLIED CONDITIONS: Avena fatua, 312 h, rate 250 g/ha, evaluated after 13 days, scale 100 = total damage to plant, 0 = no damage

MOLECULE	UNIT OF MEASUREMENT	pest or weed control at 250 g/ha
CCc1cc(-c2ccc(Cl)c(Cl)c2)ccc1C1=C(OC(C)=O)C(C)(C)OC(C)(C)C1=O	%	20
CCc1cc(-c2ccc(F)c(F)c2F)ccc1C1=C(O)C(C)(COC)OC(C)(C)C1=O (stereo not drawn)	%	40
CCc1cc(-c2ccc(C)c(F)c2)ccc1C1=C(O)C(C)(C)OC(C)(C)C1=O	%	0
CCc1cc(-c2cc(F)c(F)c(F)c2)ccc1C1=C(O)C(C)(C)S(=O)(=O)C(C)(C)C1=O	%	30
CCc1cc(-c2ccc(F)cc2)ccc1C1=C(O)C(C)(CC)OC(C)(CC)C1=O (stereo not drawn)	%	0
CCc1cc(-c2ccc(Cl)nc2)ccc1C1=C(O)[C@@]2(C)CC[C@H](O2)C1=O	%	20
CCc1cc(-c2ccc(Cl)c(C)c2)ccc1C1=C(O)[C@@]2(C)CC[C@H](O2)C1=O	%	30
CCc1cc(-c2ccc(Cl)c(C)c2)ccc1C1=C(O)C(C)(C)OC(C)(C)C1=O	%	0
CCc1cc(-c2ccc(Cl)cc2Cl)ccc1C1=C(O)C(C)(C)OC(C)(C)C1=O	%	0
CCc1cc(-c2ccc(F)cc2)ccc1C1=C(O)C(C)OC(C)(C)C1=O (stereo not drawn)	%	0
CCc1cc(-c2ccc(Cl)c(C(F)(F)F)c2)ccc1C1=C(O)[C@@]2(C)CC[C@H](O2)C1=O	%	50
CCc1cc(-c2ccc(F)cc2)ccc1C1=C(O)[C@@]2(C)CC[C@H](O2)C1=O	%	70
CCc1cc(-c2cc(F)c(F)cc2F)ccc1C1=C(O)C(C)(CC)OC(C)(C)C1=O (stereo not drawn)	%	0
CCc1cc(-c2cc(F)cc(Cl)c2)ccc1C1=C(O)C(C)(C)OC(C)(C)C1=O	%	0
CCc1cc(-c2ccc(F)c(F)c2)ccc1C1=C(O)C(C)(CC)OC(C)(C)C1=O (stereo not drawn)	%	10
CCc1cc(-c2ccccc2)ccc1C1=C(O)C(C)(C)OC(C)(C)C1=O	%	10
CCc1cc(-c2ccc(F)cc2OC)ccc1C1=C(O)C(C)(C)OC(C)(C)C1=O	%	30
CCc1cc(-c2ccc(Cl)c(F)c2F)ccc1C1=C(O)[C@@]2(C)CC[C@H](O2)C1=O (racemic)	%	0

----------
- Tested on: Lolium perenne (LOLPE)
- MEASUREMENT DESCRIPTION: Post-emergence herbicidal glasshouse test, Lolium perenne
- Format: in vivo
- APPLIED CONDITIONS: 312 h, rate 250 g/ha, evaluated after 13 days, scale 100 = total damage to plant, 0 = no damage

COMPOUND	pest or weed control at 250 g/ha (%)
CCc1cc(-c2ccc(Cl)c(C)c2)ccc1C1=C(O)C(C)(C)OC(C)(C)C1=O	40
CCc1cc(-c2ccc(F)c(F)c2)ccc1C1=C(O)C(C)(CC)OC(C)(C)C1=O (centres unmarked)	90
CCc1cc(-c2ccc(Cl)c(F)c2)ccc1C1=C(O)C(C)(C)OC(C)(C)C1=O	90
CCc1cc(-c2cc(F)c(F)c(F)c2)ccc1C1=C(O)C(C)(CC)OC(C)(CC)C1=O (centres unmarked)	60
Cc1cc(-c2cc(Cl)cc(Cl)c2)cc(C)c1C1=C(O)[C@@]2(C)CC[C@H](O2)C1=O	40
CCc1cc(-c2ccc(Cl)c(Cl)c2F)ccc1C1=C(O)C(C)(C)OC(C)(C)C1=O	30
CCc1cc(-c2c(F)cc(F)cc2F)ccc1C1=C(O)C(C)(COC)OC(C)(C)C1=O (centres unmarked)	70
CCc1cc(-c2ccc(F)c(F)c2)ccc1C1=C(O)C(C)(C)OC(C)(C)C1=O	100

----------
- Tested on: Lolium perenne (LOLPE)
- MEASUREMENT DESCRIPTION: Post-emergence herbicidal glasshouse test, Lolium perenne
- Assay type: in vivo
- APPLIED CONDITIONS: 312 h, rate 250 g/ha, evaluated after 13 days, scale 100 = total damage to plant, 0 = no damage
- Method: Seeds of a variety of test species were sown in standard soil in pots. […] After 13 days for pre and post-emergence, the test was evaluated ([…] to plant; 0=no damage to plant). […]

COMPOUND	pest or weed control at 250 g/ha (%)
CCc1cc(-c2cc(F)c(F)c(F)c2)ccc1C1=C(O)C(C)(C)OC(C)(C)C1=O	100
CCc1cc(-c2ccc(Cl)cc2Cl)ccc1C1=C(O)[C@@]2(C)CC[C@H](O2)C1=O	100
CCc1cc(-c2cc(F)c(F)cc2F)ccc1C1=C(O)C(C)(CC)OC(C)(CC)C1=O (centres unmarked)	50
CCc1cc(-c2ccc(F)c(Cl)c2)ccc1C1=C(O)C(C)(C)OC(C)(C)C1=O	80
CCc1cc(-c2ccc(F)c(OC)c2)ccc1C1=C(O)C(C)(CC)OC(C)(C)C1=O (centres unmarked)	80
CCc1cc(-c2ccc(F)cc2F)ccc1C1=C(O)C(C)(C)OC(C)(C)C1=O	80
CCc1cc(-c2ccc(F)c(F)c2)ccc1C1=C(O)C(C)(C)S(=O)(=O)C(C)(C)C1=O	70
CCc1cc(-c2ccc(F)c(OC)c2)ccc1C1=C(O)C(C)(C)OC(C)(C)C1=O	100
